target desc: Amyloid-beta precursor protein (Homo sapiens)
procedure summary: Inhibition of amyloid beta (1 to 42) fibril formation at 10 uM after 1 hr by ThT spectrofluorometric analysis
readout: inhibition (%)
Answers are plain numbers, in %.

smiles: Oc1cccc(/C=C/c2cc(/C=C/c3cccc(O)c3)ncn2)c1
target desc: Amyloid-beta precursor protein (Homo sapiens)
value units: %
inhibition: 14.1

State recorded inhibition for all listed compounds.
1. C(=C\c1cc(/C=C/c2ccccc2)ncn1)/c1ccccc1
2. COc1nc(/C=C/c2ccc(N(C)C)c(O)c2)cc(/C=C/c2ccc(N(C)C)c(O)c2)n1
3. COc1ccc(/C=C/c2cccc(/C=C/c3ccc(OC)c(O)c3)c2)cc1O
4. CN(C)c1cc(/C=C/c2cc(/C=C/c3ccc(O)c(N(C)C)c3)ncn2)ccc1O
5. CSc1nc(/C=C/c2ccccc2)cc(/C=C/c2ccccc2)n1
6. CN(C)c1ccc(/C=C/c2cccc(/C=C/c3ccc(N(C)C)c(O)c3)c2)cc1O
7. CN(C)c1cc(/C=C/c2cc(O)cc(/C=C/c3ccc(O)c(N(C)C)c3)c2)ccc1O

[47.4, 90.4, 67.9, 83.5, 11.6, 56, 74.2]

Value sought for every listed compound: inhibition.
1. COc1ccc(/C=C/c2cc(/C=C/c3ccc(OC)c(O)c3)ncn2)cc1O
2. CN(C)c1ccc(/C=C/c2cc(O)cc(/C=C/c3ccc(N(C)C)c(O)c3)c2)cc1O
3. COc1cc(/C=C/c2cc(/C=C/c3ccc(O)c(OC)c3)ncn2)ccc1O
4. CSc1nc(/C=C/c2ccc(O)cc2)cc(/C=C/c2ccc(O)cc2)n1
5. COc1ccc(/C=C/c2cc(/C=C/c3ccc(OC)c(O)c3)nc(SC)n2)cc1O
6. C(=C\c1cccc(/C=C/c2ccccc2)c1)/c1ccccc1
7. COc1ccc(/C=C/c2cc(O)cc(/C=C/c3ccc(OC)c(O)c3)c2)cc1O
8. COc1nc(/C=C/c2ccc(OC)c(O)c2)cc(/C=C/c2ccc(OC)c(O)c2)n1

[80.9, 83.3, 79.3, 67.4, 75.2, 19.8, 84.5, 55]

Batch request: inhibition for each of the following compounds.
1. CSc1nc(/C=C/c2ccc(N(C)C)c(O)c2)cc(/C=C/c2ccc(N(C)C)c(O)c2)n1
2. CSc1nc(/C=C/c2ccc(O)c(N(C)C)c2)cc(/C=C/c2ccc(O)c(N(C)C)c2)n1
3. COc1cc(/C=C/c2cccc(/C=C/c3ccc(O)c(OC)c3)c2)ccc1O
4. COc1nc(/C=C/c2ccc(O)c(N(C)C)c2)cc(/C=C/c2ccc(O)c(N(C)C)c2)n1
5. CN(C)c1cc(/C=C/c2cccc(/C=C/c3ccc(O)c(N(C)C)c3)c2)ccc1O
6. COc1nc(/C=C/c2ccccc2)cc(/C=C/c2ccccc2)n1

1. 88.8
2. 78.6
3. 71.5
4. 74.1
5. 63.9
6. 18.8

====

target desc: Amyloid-beta precursor protein (Homo sapiens, UniProt P05067)
Sequence (P05067 whole entry): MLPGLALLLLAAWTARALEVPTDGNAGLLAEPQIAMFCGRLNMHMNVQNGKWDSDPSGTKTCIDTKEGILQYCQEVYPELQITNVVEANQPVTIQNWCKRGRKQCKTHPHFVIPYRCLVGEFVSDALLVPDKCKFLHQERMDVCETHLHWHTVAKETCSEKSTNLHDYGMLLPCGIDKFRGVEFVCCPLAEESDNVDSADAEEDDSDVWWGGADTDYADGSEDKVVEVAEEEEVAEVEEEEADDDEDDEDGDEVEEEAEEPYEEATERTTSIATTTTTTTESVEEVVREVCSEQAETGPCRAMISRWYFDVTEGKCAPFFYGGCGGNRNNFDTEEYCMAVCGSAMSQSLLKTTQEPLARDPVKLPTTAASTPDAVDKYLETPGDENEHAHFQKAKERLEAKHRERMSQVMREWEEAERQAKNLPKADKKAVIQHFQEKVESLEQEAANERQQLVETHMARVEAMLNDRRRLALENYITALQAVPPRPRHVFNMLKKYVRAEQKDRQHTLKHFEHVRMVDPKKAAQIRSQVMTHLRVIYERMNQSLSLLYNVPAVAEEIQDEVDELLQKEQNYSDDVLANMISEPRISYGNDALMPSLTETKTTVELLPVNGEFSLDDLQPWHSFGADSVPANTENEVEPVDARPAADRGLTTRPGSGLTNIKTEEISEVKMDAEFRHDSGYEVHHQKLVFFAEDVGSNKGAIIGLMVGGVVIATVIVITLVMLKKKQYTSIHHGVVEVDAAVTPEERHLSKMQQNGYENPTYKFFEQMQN
procedure summary: Inhibition of amyloid beta (25 to 35)-induced cell death in mouse HT22 cells at 10 uM after 18 hrs by MTT assay
Assay type: cell-based
conditions: HT-22, values are per cent of control
readout: viability, % of control (%)
Give bare numbers, in %.

smiles: COc1ccc(/C=C/c2cc(/C=C/c3ccc(OC)c(O)c3)ncn2)cc1O
viability, % of control, %: 91.8

smiles: COc1nc(/C=C/c2ccc(N(C)C)c(O)c2)cc(/C=C/c2ccc(N(C)C)c(O)c2)n1
viability, % of control, %: 67.4

smiles: COc1nc(/C=C/c2ccc(O)c(N(C)C)c2)cc(/C=C/c2ccc(O)c(N(C)C)c2)n1
viability, % of control, %: 59

smiles: CN(C)c1ccc(/C=C/c2cc(/C=C/c3ccc(N(C)C)c(O)c3)ncn2)cc1O
viability, % of control, %: 76.6

smiles: CN(C)c1cc(/C=C/c2cc(/C=C/c3ccc(O)c(N(C)C)c3)ncn2)ccc1O
viability, % of control, %: 85.3

// moving on: another record for viability, % of control
Lab note: need viability, % of control with Amyloid-beta precursor protein (Homo sapiens, UniProt P05067) for entry "COc1cc(/C=C/c2cc(/C=C/c3ccc(O)c(OC)c3)ncn2)ccc1O" , please look it up.
103

Source of measurements: ChEMBL document CHEMBL2057119
